Assay: Luciferase activity of purified RLuc mutants (light output integrated over 10 s, luminometer)
Type: biochemical
Settings: coelenterazine-cp; relative to native enzyme
Value Type: Activity (relative to RLuc) cp

| Molecule | Measured Value |
| --- | --- |
| C124A/F199M: RLuc mutant C124A/F199M (protein) MASKVYDPEQRKRMITGPQWWARCKQMNVLDSFINYYDSEKHAENAVIFLHGNAASSYLWRHVVPHIEPVARCIIPDLIGMGKSGKSGNGSYRLLDHYKYLTAWFELLNLPKKIIFVGHDWGAALAFHYSYEHQDKIKAIVHAESVVDVIESWDEWPDIEEDIALIKSEEGEKMVLENNFFVETMLPSKIMRKLEPEEMAAYLEPFKEKGEVRRPTLSWPREIPLVKGGKPDVVQIVRNYNAYLRASDDLPKMFIESDPGFFSNAIVEGAKKFPNTEFVKVKGLHFSQEDAPDEMGKYIKSFVERVLKNEQ | 0.53 |
| A54P/A55T/C124A: RLuc mutant A54P/A55T/C124A (protein) MASKVYDPEQRKRMITGPQWWARCKQMNVLDSFINYYDSEKHAENAVIFLHGNPTSSYLWRHVVPHIEPVARCIIPDLIGMGKSGKSGNGSYRLLDHYKYLTAWFELLNLPKKIIFVGHDWGAALAFHYSYEHQDKIKAIVHAESVVDVIESWDEWPDIEEDIALIKSEEGEKMVLENNFFVETMLPSKIMRKLEPEEFAAYLEPFKEKGEVRRPTLSWPREIPLVKGGKPDVVQIVRNYNAYLRASDDLPKMFIESDPGFFSNAIVEGAKKFPNTEFVKVKGLHFSQEDAPDEMGKYIKSFVERVLKNEQ | 0.11 |
| A55T/C124A: RLuc mutant A55T/C124A (protein) MASKVYDPEQRKRMITGPQWWARCKQMNVLDSFINYYDSEKHAENAVIFLHGNATSSYLWRHVVPHIEPVARCIIPDLIGMGKSGKSGNGSYRLLDHYKYLTAWFELLNLPKKIIFVGHDWGAALAFHYSYEHQDKIKAIVHAESVVDVIESWDEWPDIEEDIALIKSEEGEKMVLENNFFVETMLPSKIMRKLEPEEFAAYLEPFKEKGEVRRPTLSWPREIPLVKGGKPDVVQIVRNYNAYLRASDDLPKMFIESDPGFFSNAIVEGAKKFPNTEFVKVKGLHFSQEDAPDEMGKYIKSFVERVLKNEQ | 0.58 |
| C124A/G229E: RLuc mutant C124A/G229E (protein) MASKVYDPEQRKRMITGPQWWARCKQMNVLDSFINYYDSEKHAENAVIFLHGNAASSYLWRHVVPHIEPVARCIIPDLIGMGKSGKSGNGSYRLLDHYKYLTAWFELLNLPKKIIFVGHDWGAALAFHYSYEHQDKIKAIVHAESVVDVIESWDEWPDIEEDIALIKSEEGEKMVLENNFFVETMLPSKIMRKLEPEEFAAYLEPFKEKGEVRRPTLSWPREIPLVKGEKPDVVQIVRNYNAYLRASDDLPKMFIESDPGFFSNAIVEGAKKFPNTEFVKVKGLHFSQEDAPDEMGKYIKSFVERVLKNEQ | 0.03 |
| C124A/F261L/F262L: RLuc mutant C124A/F261L/F262L (protein) MASKVYDPEQRKRMITGPQWWARCKQMNVLDSFINYYDSEKHAENAVIFLHGNAASSYLWRHVVPHIEPVARCIIPDLIGMGKSGKSGNGSYRLLDHYKYLTAWFELLNLPKKIIFVGHDWGAALAFHYSYEHQDKIKAIVHAESVVDVIESWDEWPDIEEDIALIKSEEGEKMVLENNFFVETMLPSKIMRKLEPEEFAAYLEPFKEKGEVRRPTLSWPREIPLVKGGKPDVVQIVRNYNAYLRASDDLPKMFIESDPGLLSNAIVEGAKKFPNTEFVKVKGLHFSQEDAPDEMGKYIKSFVERVLKNEQ | 0.00 |
| C124A/A143M: RLuc mutant C124A/A143M (protein) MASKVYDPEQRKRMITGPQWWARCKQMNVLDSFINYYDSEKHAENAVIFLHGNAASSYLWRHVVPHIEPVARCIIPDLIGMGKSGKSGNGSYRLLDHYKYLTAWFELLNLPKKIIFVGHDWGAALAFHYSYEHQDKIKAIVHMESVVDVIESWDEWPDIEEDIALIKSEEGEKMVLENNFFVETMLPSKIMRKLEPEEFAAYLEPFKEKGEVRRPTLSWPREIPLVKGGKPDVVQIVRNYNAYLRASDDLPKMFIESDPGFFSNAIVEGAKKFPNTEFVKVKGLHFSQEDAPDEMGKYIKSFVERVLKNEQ | 0.95 |
| C124A/M253L: RLuc mutant C124A/M253L (protein) MASKVYDPEQRKRMITGPQWWARCKQMNVLDSFINYYDSEKHAENAVIFLHGNAASSYLWRHVVPHIEPVARCIIPDLIGMGKSGKSGNGSYRLLDHYKYLTAWFELLNLPKKIIFVGHDWGAALAFHYSYEHQDKIKAIVHAESVVDVIESWDEWPDIEEDIALIKSEEGEKMVLENNFFVETMLPSKIMRKLEPEEFAAYLEPFKEKGEVRRPTLSWPREIPLVKGGKPDVVQIVRNYNAYLRASDDLPKLFIESDPGFFSNAIVEGAKKFPNTEFVKVKGLHFSQEDAPDEMGKYIKSFVERVLKNEQ | 1.6 |

Each recorded value in this set is attributed to patent US7842469B2.
